- Test system: PPARg:RXRa 270nM:90nM, anti-RXR (NR concentration 270 nM, RXRa partner concentration 90 nM)
- PROTOCOL NOTES: PBM binding z-score (relative to random genomic background probes); higher = stronger binding; sequences stand for … in GC…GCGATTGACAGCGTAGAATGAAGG
Catalogue of PBM binding z-score values
// return just the number, without any unit appended

Solved cases (8 shown):
# SEQ STRING, PBM binding z-score
measured = [
    ("CAAACTAGGTCACGAAAGGTCAAAATCGAATGAC", 8.29),
    ("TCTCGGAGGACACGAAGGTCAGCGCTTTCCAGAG", 2.02),
    ("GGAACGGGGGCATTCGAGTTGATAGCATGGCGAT", 4.08),
    ("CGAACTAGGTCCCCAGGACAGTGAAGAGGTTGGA", 0.762),
    ("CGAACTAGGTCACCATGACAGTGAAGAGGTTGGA", 6.55),
    ("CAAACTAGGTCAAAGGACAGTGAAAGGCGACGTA", 8.88),
    ("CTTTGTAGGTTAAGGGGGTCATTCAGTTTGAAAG", 7.59),
    ("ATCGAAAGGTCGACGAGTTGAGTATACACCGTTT", 2.77),
]

Query: State the recorded PBM binding z-score for this entry: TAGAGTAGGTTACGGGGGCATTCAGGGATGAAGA
Result: 6.43

Query: Please answer likewise for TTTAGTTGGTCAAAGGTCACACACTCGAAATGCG
Result: 10.6

Query: Would you mind doing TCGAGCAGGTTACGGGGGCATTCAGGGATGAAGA as well?
Result: 4.37

* * *

- System: PPARg:RXRa 270nM:90nM, anti-RXR (NR concentration 270 nM, RXRa partner concentration 90 nM)
- PROTOCOL NOTES: PBM binding z-score (relative to random genomic background probes); higher = stronger binding; sequences stand for … in GC…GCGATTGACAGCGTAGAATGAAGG
MEASURED QUANTITY: PBM binding z-score
I only need the number, thanks.

Query: Any idea what its PBM binding z-score is? The sequence is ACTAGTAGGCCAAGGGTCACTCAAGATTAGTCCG
Result: 9.26

* * *

- Tested on: THRa:RXRa (NR concentration 90 nM, RXRa partner concentration 90 nM)
- PROTOCOL NOTES: PBM binding z-score (relative to random genomic background probes); higher = stronger binding; sequences stand for … in GC…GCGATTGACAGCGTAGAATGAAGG
# label = bin(measured PBM binding z-score), where bins are bottom end = under 3, midrange = from 3 up to 4, top end = 4 and over

Examples with answers:
# SEQ STRING, STUDY TARGET, ASSIGNED CATEGORY
measured = [
    ("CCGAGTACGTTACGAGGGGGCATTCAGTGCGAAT", "THRa:RXRa (NR concentration 90 nM, RXRa partner concentration 90 nM)", "bottom end"),
    ("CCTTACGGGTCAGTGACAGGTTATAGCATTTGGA", "THRa:RXRa (NR concentration 90 nM, RXRa partner concentration 90 nM)", "bottom end"),
]

Query: # bin lookup: classify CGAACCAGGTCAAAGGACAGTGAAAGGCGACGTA by its PBM binding z-score
Result: midrange

Query: Then what about the sequence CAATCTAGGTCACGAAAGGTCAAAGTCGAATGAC ?
Result: top end

Query: Try this sequence next: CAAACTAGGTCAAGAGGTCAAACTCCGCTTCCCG
Result: top end

Query: Let us now turn to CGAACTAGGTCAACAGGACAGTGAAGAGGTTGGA
Result: bottom end

Query: Now give it for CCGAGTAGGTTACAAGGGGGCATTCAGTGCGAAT too.
Result: midrange

Query: Subsequent entry: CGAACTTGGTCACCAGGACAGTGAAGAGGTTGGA
Result: bottom end

Query: Try the sequence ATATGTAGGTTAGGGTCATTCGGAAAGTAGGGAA
Result: top end

Query: Entry to check: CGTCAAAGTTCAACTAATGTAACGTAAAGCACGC
Result: midrange
